TARGET_OR_SYSTEM: Glucagon receptor (Homo sapiens, UniProt P47871)
Sequence (P47871 whole entry): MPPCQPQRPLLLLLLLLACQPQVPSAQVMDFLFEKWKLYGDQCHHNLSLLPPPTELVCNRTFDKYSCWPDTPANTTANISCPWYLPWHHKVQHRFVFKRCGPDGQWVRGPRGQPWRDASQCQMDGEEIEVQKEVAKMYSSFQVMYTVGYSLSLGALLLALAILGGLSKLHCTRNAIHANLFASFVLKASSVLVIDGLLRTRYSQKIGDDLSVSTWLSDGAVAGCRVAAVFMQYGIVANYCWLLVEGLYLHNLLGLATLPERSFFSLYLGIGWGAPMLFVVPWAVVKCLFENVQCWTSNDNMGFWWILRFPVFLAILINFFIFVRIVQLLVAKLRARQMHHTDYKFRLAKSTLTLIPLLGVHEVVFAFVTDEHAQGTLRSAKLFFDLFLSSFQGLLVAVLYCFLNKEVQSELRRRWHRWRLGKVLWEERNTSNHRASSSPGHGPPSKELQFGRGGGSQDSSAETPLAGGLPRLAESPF
TEST_PROTOCOL: Antagonist activity at human glucagon receptor transfected in CHO cells assessed as inhibition of glucagon-induced cAMP accumulation
Format: functional, cell-based
CONDITION: read-out: IC50
Readings of pIC50 for the listed molecules
pIC50 is a log-scale quantity: -log10 of the concentration expressed in molar.

Known results for molecules:
MOLECULE	RESULT_VALUE
CC(C)(C)[C@H]1CC[C@H](N(C(=O)Cc2ccc(OC(F)(F)F)cc2)C2CCc3cc(C(=O)NCCC(=O)O)ccc32)CC1 (some centres not stated)	6.30
CC(C)(C)[C@H]1CC[C@H](N(C(=O)Nc2cc(Cl)cc(Cl)c2)C2CCc3cc(C(=O)Nc4nn[nH]n4)ccc32)CC1 (some centres not stated)	8.23
CC(C)(C)[C@H]1CC[C@H](N(C(=O)Nc2cc(Cl)cc(Cl)c2)C2CCc3cc(C(=O)NCCC(=O)O)ccc32)CC1 (some centres not stated)	7.96
O=C(Nc1nnn[nH]1)c1ccc2c(c1)CCC2N(C(=O)Nc1ccc(OC(F)(F)F)cc1)c1ccc(OC(F)(F)F)cc1 (configuration not stated)	5.46
CC(C)(C)[C@H]1CC[C@H](N(C(=O)c2ccc(OC(F)(F)F)cc2)C2CCc3cc(C(=O)NCCC(=O)O)ccc32)CC1 (some centres not stated)	5.56

Please look up its pIC50: O=C(O)CCNC(=O)c1ccc2c(c1)CCC2N(C(=O)Nc1ccc(OC(F)(F)F)cc1)c1ccc(C2CCCCC2)cc1 (configuration not stated) 6.72

Please look up its pIC50: CC(C)(C)[C@H]1CC[C@H](N(C(=O)c2ccc(OC(F)(F)F)cc2)C2CCc3cc(C(=O)Nc4nnn[nH]4)ccc32)CC1 (some centres not stated) 5.83
